# Target Desc: T1, human EPH receptor A5 (EphA5) expressed on cells (human, UniProt P54756 25-1037)
# T1 construct: Cell line (H460 stably expressing EphA5; HEK-293T transfected with EPHA5 clone or wild-type construct; lung cancer lines with endogenous or variable expression); also called cell-surface EphA5; wild-type target protein
# T1 sequence (P54756 25-1037 limits assumed): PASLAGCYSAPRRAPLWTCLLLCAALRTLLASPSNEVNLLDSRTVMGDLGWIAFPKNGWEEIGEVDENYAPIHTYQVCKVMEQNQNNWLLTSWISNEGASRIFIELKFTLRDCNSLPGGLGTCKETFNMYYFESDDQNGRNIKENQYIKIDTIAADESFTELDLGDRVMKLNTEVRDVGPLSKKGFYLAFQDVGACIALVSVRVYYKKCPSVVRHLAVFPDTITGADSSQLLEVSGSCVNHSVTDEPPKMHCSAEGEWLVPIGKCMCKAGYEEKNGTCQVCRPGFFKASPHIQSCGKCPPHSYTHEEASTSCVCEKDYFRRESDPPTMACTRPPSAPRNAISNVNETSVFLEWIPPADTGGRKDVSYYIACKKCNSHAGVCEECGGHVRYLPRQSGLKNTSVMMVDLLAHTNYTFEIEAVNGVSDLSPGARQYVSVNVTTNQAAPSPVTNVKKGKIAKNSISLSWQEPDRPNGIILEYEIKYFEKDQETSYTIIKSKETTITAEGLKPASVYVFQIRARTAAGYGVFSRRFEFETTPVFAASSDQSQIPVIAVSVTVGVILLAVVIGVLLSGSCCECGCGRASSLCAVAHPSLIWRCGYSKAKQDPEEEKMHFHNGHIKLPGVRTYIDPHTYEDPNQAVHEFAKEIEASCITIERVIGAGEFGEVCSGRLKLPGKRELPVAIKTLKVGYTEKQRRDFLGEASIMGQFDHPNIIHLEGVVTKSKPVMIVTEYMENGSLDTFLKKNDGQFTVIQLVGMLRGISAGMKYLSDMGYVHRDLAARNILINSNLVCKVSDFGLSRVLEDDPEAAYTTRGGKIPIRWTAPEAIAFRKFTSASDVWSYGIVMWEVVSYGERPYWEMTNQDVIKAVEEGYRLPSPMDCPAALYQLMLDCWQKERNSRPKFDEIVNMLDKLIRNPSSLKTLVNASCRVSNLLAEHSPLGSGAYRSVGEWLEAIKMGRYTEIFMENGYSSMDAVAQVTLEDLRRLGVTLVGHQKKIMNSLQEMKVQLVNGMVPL
# Method Description: flow cytometry on H460 (EphA5+) cells, starting assay concentration 10 µg/mL
Measured Metric: Max. Binding (MFI)
Please state the figure in MFI; there is no need to write the unit.

Give the measured Max. Binding (MFI) of anti-human EphA5 monoclonal murine antibody 11C12 (antibody, V domains shown, Full murine antibody; also called murine 11C12; mouse 11C12) VH: EVTLKESGGGLVQPGGSRKLSCAASGFTFSTFGIHWVRQAPEKGLEWVAYISGASTTIYYADTVKGRFTISRDNPKNTLFLQMTSLRSEDTAMYYCARYGTSFPYGLDYWGQGTSVTVSS VL: DIVMTQSPGSLAVSLGQRATISCKASQSVDYDGDSYMNWYQQKPGQPPKLLIYGASNLESGIPARFSGSGSGTDFTLNIHPVEEEDAASYYCQQSNEDPFTFGSGTKLEIK .
27300

Look at this binder and give its reported Max. Binding (MFI). VH5/VK2 humanized 11C12 antibody (antibody, human IgG1, kappa, V domains shown, Human IgG1/kappa; lead variant, tested as HEK supernatant and as protein purified from CHO; also called H5K2) VH: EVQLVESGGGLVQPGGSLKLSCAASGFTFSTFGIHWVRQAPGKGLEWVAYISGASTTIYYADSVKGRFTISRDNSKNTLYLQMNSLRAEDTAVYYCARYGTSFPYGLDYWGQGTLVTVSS VL: DIVMTQSPDSLAVSLGERATINCKASQSVDYDGDSYMNWYQQKPGKAPKLLIYGASNLESGIPDRFSGSGSGTDFTLTISRLEPEDAASYYCQQSNEDPFTFGQGTKLEIKR
36900

# Max. Binding (MFI) lookup, item chimeric VH0/VK0 antibody (murine 11C12 variable regions, human IgG1/kappa constant regions) (antibody, V domains shown, also called chimeric antibody) VH: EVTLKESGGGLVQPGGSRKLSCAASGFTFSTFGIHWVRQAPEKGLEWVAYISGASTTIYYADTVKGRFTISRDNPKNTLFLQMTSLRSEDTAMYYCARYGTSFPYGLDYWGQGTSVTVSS VL: DIVMTQSPGSLAVSLGQRATISCKASQSVDYDGDSYMNWYQQKPGQPPKLLIYGASNLESGIPARFSGSGSGTDFTLNIHPVEEEDAASYYCQQSNEDPFTFGSGTKLEIKR
35400

Fill in the blank: the reported Max. Binding (MFI) of VH4/VK4 humanized 11C12 antibody (antibody, human IgG1, kappa, V domains shown, Human IgG1/kappa; lead variant, tested as HEK supernatant and as protein purified from CHO; also called H4K4) VH: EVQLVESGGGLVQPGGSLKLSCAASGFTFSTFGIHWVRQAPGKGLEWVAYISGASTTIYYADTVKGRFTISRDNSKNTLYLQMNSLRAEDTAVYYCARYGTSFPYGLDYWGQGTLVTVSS VL: DIVMTQSPDSLAVSLGERATINCKSSQSVDYDGDSYMNWYQQKPGKAPKLLIYGASNLESGIPDRFSGSGSGTDFTLTISRLEPEDAASYYCQQSNEDPFTFGQGTKLEIKR is ____.
37500

Attribution: patent US20240115722A1
